Test: shake flask in triplicate (rotator; centrifuged); both phases by HPLC-MS/MS; mebendazole reference
Conditions: PBS pH 7.4, mutually saturated, not stated C, DMSO stock (small aliquot)
Where a SMILES comes first, the peptide text is derived from it.
Task for the reader: assign each of the following molecules its reported log D (1-octanol / PBS pH 7.4).
Give just the number in log units; leave the unit off.

Recorded log D (1-octanol / PBS pH 7.4) for `CCCCCCOC(=O)N=C(NCCC[C@@H]1NC(=O)[C@@H](C(C)C)N(C)C(=O)[C@H](C)N(C)C(=O)[C@H](C)NC(=O)[C@H](CC(=O)OC)NC(=O)CNC1=O)NC(=O)OCCCCCC` , please?
4.86

How about CC(C)C[C@@H]1NC(=O)[C@H](CC(=O)O)NC(=O)CNC(=O)[C@H](CCCNC(=N)N)NC(=O)[C@H](Cc2ccccc2)NC(=O)[C@@H]2CCCN2C(=O)[C@@H]2CCCN2C(=O)[C@H](CC(C)C)NC(=O)[C@H](C)NC1=O (cyclo(RGDLALPPF)) ?
−0.19

How about `CCCCCCOC(=O)NC(=N)NCCC[C@@H]1NC(=O)[C@@H](C(C)C)N(C)C(=O)[C@H](C)N(C)C(=O)[C@H](C)NC(=O)[C@H](CC(=O)OC)NC(=O)CNC1=O` ?
1.85

How about `COC(=O)Nc1nc2cc(C(=O)c3ccccc3)ccc2[nH]1` ?
3.04
